Tested on: GBA mutant human fibroblasts GM008760
protocol.details: Glucosylceramide lowering assay
Type: cell-based
run.conditions: Homo sapiens, Fibroblast, 96 h; 10 μM test compound, 4 days culture; GlcCer (C16:0)/Cer (C16:0) molar ratio of test compound group relative to DMSO control group x100; smaller value = glucosylceramide lowering
readout.label: activity at 10 µM (%)
Give your result in % as a bare value.

Record excerpt, results attached:
compound	readout.label	result
CCCCO[C@H]1CC[C@H](NC(=O)c2cn(C)c3c(C)cn(C)c(=O)c23)CC1	activity at 10 µM	87
Cc1cn(-c2ccc(F)cc2OCC(F)(F)F)c(=O)c2c(C(=O)Nc3ccc(N4CCOCC4)cc3)cnn12	activity at 10 µM	42
Cc1cn(C)c(=O)c2c(C(=O)Nc3cccc(OCc4ccccc4)c3)cn(C)c12	activity at 10 µM	59
COc1ccccc1-n1ccc2c(c(C(=O)Nc3ccc(N4CCOCC4)cc3)cn2C)c1=O	activity at 10 µM	52
Cc1cn(C)c(=O)c2c(C(=O)NC3(c4cccc(Cl)c4)CCC3)cn(C)c12	activity at 10 µM	59
Cc1cn(C)c(=O)c2c(C(=O)Nc3ccc(C#N)cn3)cn(C)c12	activity at 10 µM	62
Cc1cn(C)c(=O)c2c(C(=O)N3CCC(Oc4ccc(Cl)cc4)CC3)cn(C)c12	activity at 10 µM	36

Consider now this further compound.
Request: What does the data say about its activity at 10 µM? Entry: Cc1cn(C)c(=O)c2c(C(=O)N3CC4CC4(c4cccc(OC(F)(F)F)c4)C3)cn(C)c12 (centres unmarked)
Result: 63

---

Test system: GBA mutant human fibroblasts GM008760
protocol.details: Glucosylceramide lowering assay
Format: cell-based
run.conditions: Homo sapiens, Fibroblast, 96 h; 10 μM test compound, 4 days culture; GlcCer (C16:0)/Cer (C16:0) molar ratio of test compound group relative to DMSO control group x100; smaller value = glucosylceramide lowering
# label = MET if activity at 10 µM < 60% else NOT MET

Worked set:
molecule	class.label
Cc1cn(C)c(=O)c2c(C(=O)NC(C)(C)c3ccc(Cl)cc3)cnn12 [Example 306]	MET
Cc1cn(-c2ccccc2OCC(F)(F)F)c(=O)c2c(C(=O)Nc3ccc(C#N)nc3)cnn12 [Example 342]	MET
Cc1cn(C)c(=O)c2c(C(=O)N3CC4CC4(c4ccc(Cl)cc4)C3)cn(C)c12 (centres unmarked) [Example 72]	MET
Cc1cn(C)c(=O)c2c(C(=O)N3CC4CC4(c4ccccc4C(F)(F)F)C3)cn(C)c12 (centres unmarked) [Example 137]	NOT MET
Cc1cn(CC#N)c(=O)c2c(C(=O)N3CCC(Oc4ccc(Cl)cc4)CC3)cnn12 [Example 330]	NOT MET

Request: Please determine if Cc1cn(C)c(=O)c2c(C(=O)NCc3ccc(-c4ccc(Cl)cc4)s3)cn(C)c12 [Example 217] is below 60% in terms of activity at 10 µM.
Result: NOT MET

Request: How about Cc1cn(C)c(=O)c2c(C(=O)N3CC4CC4(c4cc(Cl)cc(Cl)c4)C3)cn(C)c12 (centres unmarked) [Example 122] ?
Result: MET

---

Tested on: GBA mutant human fibroblasts GM008760
protocol.details: Glucosylceramide lowering assay
Format: cell-based
run.conditions: Homo sapiens, Fibroblast, 96 h; 10 μM test compound, 4 days culture; GlcCer (C16:0)/Cer (C16:0) molar ratio of test compound group relative to DMSO control group x100; smaller value = glucosylceramide lowering
Mark false for activity at 10 µM values under 50%, and true for everything at or above.

These solved cases illustrate the format of a correct answer.
compound	class.label
Cc1cn(C)c(=O)c2c(C(=O)N3CC4CC4(c4ccc(Cl)c(C(F)(F)F)c4)C3)cn(C)c12 (centres unmarked)	false
Cc1cn(-c2ccccc2OCC(F)(F)F)c(=O)c2c(C(=O)Nc3ccc(OC(F)F)nc3)cnn12	false
Cc1cn(C)c(=O)c2c(C(=O)N3CC4CC4(c4cccc(Cl)c4)C3)cn(C)c12 (centres unmarked)	true

Request: Decide: is the reported value of activity at 10 µM for Cc1cn(C)c(=O)c2c(C(=O)N3CC4CC4(c4ccccc4F)C3)cn(C)c12 (centres unmarked) equal to or greater than 50%?
Result: true

Request: Entry Cc1cn(C)c(=O)c2c(C(=O)N3CC4CC4(c4ccccc4OC(F)(F)F)C3)cn(C)c12 (centres unmarked) please
Result: false

Request: Can you check CCCCOC1CCCC(NC(=O)c2cn(C)c3c(C)cn(C)c(=O)c23)C1 (centres unmarked) next?
Result: true

Request: Continue with Cn1cc(C(=O)Nc2ccc(N3CCOCC3)cc2)c2c(=O)n(-c3ccccc3OCC(F)(F)F)ccc21
Result: false

---

# reported activity at 10 µM; entries follow
Test system: GBA mutant human fibroblasts GM008760
protocol.details: Glucosylceramide lowering assay
Type: cell-based
run.conditions: Homo sapiens, Fibroblast, 96 h; 10 μM test compound, 4 days culture; GlcCer (C16:0)/Cer (C16:0) molar ratio of test compound group relative to DMSO control group x100; smaller value = glucosylceramide lowering
Provide the reading as a plain figure in %.

Recorded activity at 10 µM, per entry:
compound	activity at 10 µM [%]
Cc1cn(C)c(=O)c2c(C(=O)N3CC4CC4(c4ccc(OC(F)(F)F)c(F)c4)C3)cn(C)c12 (stereo not shown)	37
Cc1cn(C)c(=O)c2c(C(=O)N3CC4CC4(c4ccc(Cl)cc4)C3)cnn12 (stereo not shown)	64
Cc1cn(-c2ccccc2OCC(F)(F)F)c(=O)c2c(C(=O)Nc3ccc(C4CC4)nc3)cnn12	32

Next item in the queue.
Request: Return activity at 10 µM measured with GBA mutant human fibroblasts GM008760 given this compound: Cc1cn(C)c(=O)c2c(C(=O)N3CCC(Oc4cccc(C(F)(F)F)c4)CC3)cn(C)c12
Result: 56

---

Recorded activity at 10 µM by entry
Tested on: GBA mutant human fibroblasts GM008760
protocol.details: Glucosylceramide lowering assay
Format: cell-based
run.conditions: Homo sapiens, Fibroblast, 96 h; 10 μM test compound, 4 days culture; GlcCer (C16:0)/Cer (C16:0) molar ratio of test compound group relative to DMSO control group x100; smaller value = glucosylceramide lowering
Give the value in % but do not write % after it.

Study these solved cases before continuing.
compound	assay.target	unit.tag	activity at 10 µM
Cc1cn(C)c(=O)c2c(C(=O)N[C@H]3CCC[C@@H]3c3ccccc3)cn(C)c12 (racemic)	GBA mutant human fibroblasts GM008760	%	58
Cc1cn(-c2ccccc2OCC(F)(F)F)c(=O)c2c(C(=O)Nc3ccc(C#N)cn3)cnn12	GBA mutant human fibroblasts GM008760	%	23
Cc1cn(C)c(=O)c2c(C(=O)N3C[C@@H]4C[C@]4(c4ccc(Cl)c(Cl)c4)C3)cn(C)c12	GBA mutant human fibroblasts GM008760	%	49
COc1ccc(C23CC2CN(C(=O)c2cn(C)c4c(C)cn(C)c(=O)c24)C3)cc1 (centres unmarked)	GBA mutant human fibroblasts GM008760	%	65
Cc1cn(C)c(=O)c2c(C(=O)N3CC4CC4(c4ccc(Cl)c(Cl)c4)C3)cn(C)c12 (centres unmarked)	GBA mutant human fibroblasts GM008760	%	50

Request: What value of activity at 10 µM has been recorded for this entry: Cc1cn(C)c(=O)c2c(C(=O)NC3CCC(c4ccccc4)CC3)cn(C)c12 (centres unmarked)
Result: 67

Request: Moving on to the next compound: Cc1cn(-c2ccccc2OCC(F)(F)F)c(=O)c2c(C(=O)Nc3ccc(N4CCOCC4)cc3)cnn12
Result: 27

Request: Same lookup for Cc1cn(C)c(=O)c2c(C(=O)N3CCC(Oc4ccc(Cl)c(Cl)c4)CC3)cn(C)c12 , please.
Result: 42

Request: Same again, this time with COc1cc(NC(=O)c2cn(C)c3c(C)cn(C)c(=O)c23)ccn1
Result: 65

Request: What about this compound? Cc1cn(C)c(=O)c2c(C(=O)Nc3ccccc3OCc3ccccc3)n(C)nc12
Result: 66

Request: # repeat for Cc1cn(C)c(=O)c2c(C(=O)N3CCC(Oc4ccc(C(F)(F)F)cc4)CC3)cnn12
Result: 52

Request: Quick one: Cc1cn(C)c(=O)c2c(C(=O)N3CC4CC4(c4ccc(OC(F)(F)F)cc4)C3)cn(C)c12 (centres unmarked)
Result: 21

Request: Same question, CCCCO[C@H]1CC[C@H](NC(=O)c2cnn3c(C)cn(-c4ccccc4OCC(F)(F)F)c(=O)c23)CC1 this time
Result: 30

Request: Please give the result for COc1ccccc1-n1cc(C)c2c(c(C(=O)NC3CCCCC3)cn2C)c1=O too.
Result: 50

Request: Try Cc1cn(C)c(=O)c2c(C(=O)N[C@H]3CCC[C@H]3c3ccccc3)cn(C)c12 (racemic) next.
Result: 61

Request: Can you handle Cc1cn(C)c(=O)c2c(C(=O)NC(C)(C)c3ccccc3)cn(C)c12 next?
Result: 63

Request: Now the same for Cc1cn(C)c(=O)c2c(C(=O)N3CCC4(c5cccc(Cl)c5)C(C3)C4(F)F)cn(C)c12 (centres unmarked)
Result: 53

Request: Next entry: Cc1cn(C)c(=O)c2c(C(=O)N3CCC(F)(c4ccc(Cl)cc4)C3)cn(C)c12 (centres unmarked)
Result: 40

Request: // repeat for Cc1cn(C)c(=O)c2c(C(=O)N3CC4CC4(c4cc(Cl)ccc4Cl)C3)cn(C)c12 (centres unmarked) and report
Result: 47

Request: Moving on to COc1ccnc(NC(=O)c2cn(C)c3c(C)cn(C)c(=O)c23)c1
Result: 68

Request: Entry Cc1cn(C)c(=O)c2c(C(=O)N3C[C@H]4C[C@@]4(c4ccc(Cl)c(Cl)c4)C3)cn(C)c12 please
Result: 62

Request: Then what about the compound Cc1cn(C)c(=O)c2c(C(=O)N3CC4CC4(c4cc(Cl)cc(C(F)(F)F)c4)C3)cn(C)c12 (centres unmarked) ?
Result: 49

Request: Same question, Cc1cn(C)c(=O)c2c(C(=O)N3CCC3c3ccccc3)cn(C)c12 (centres unmarked) this time
Result: 49

Request: What do we get for Cn1cc(C(=O)NC(C)(C)c2ccc(Cl)cc2)c2c(=O)n(CC#N)ccc21 ?
Result: 52
